# TEST_SUMMARY: NCI Yeast Anticancer Drug Screen. Data for the rad14 strain (AID 159);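 also: 0% = growth of vehicle-treated control cultures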
# STATED_CONDITIONS: S. cerevisiae rad14 strain growth inhibition; at 100.0 µM
This is part of a sample that, as a whole, favours compounds with a hit. Of some 79,000 tested, about 15% had one in any assay. Calls of active or inactive are those of the source. Rule as the data show it: active = growth inhibition above about 70%; inactive = the rest.
Classes to choose from: true for active, false for inactive

{"columns": ["CHEMICAL_SMILES", "CLASS_ASSIGNMENT"],
 "data": [
  ["CCCCOCn1c(=O)[nH]c(=O)c2cc(Br)ccc21", "false"]
]}

Hi, sorry to bother you, what did the test record for Cc1c2cc[n+](Cc3ccc(I)cc3)cc2c(C)c2c1[nH]c1ccccc12 ?
true

Hi, sorry to bother you, what did the test record for CN(C)CCNC(=O)c1cccc2c1Oc1c(cccc1[N+](=O)[O-])O2 ?
false

Hi, sorry to bother you, what did the test record for CCCCOC(=O)Nc1ccc(C)c(NC(=O)OCCCC)c1 ?
false

Hi, sorry to bother you, what did the test record for CC1=CC(=C(c2ccc(N)cc2)c2ccc(N)cc2)C=CC1=N ?
true

Hi, sorry to bother you, what did the test record for Cc1c(C(C)C)cc(OCCO)cc1C(C)C ?
false

----------
# TEST_SUMMARY: NCI Yeast Anticancer Drug Screen. Data for the mec2-1 strain (AID 157)
# STATED_CONDITIONS: S. cerevisiae mec2-1 strain, at 50.0 µM (retest, dose inferred, filed as 5.0)
About 79,000 compounds went through this panel and 15% of them were active in at least one assay; those are over-represented in the sample as a whole. Calls of active or inactive are those of the source. Rule as the data show it: active = growth inhibition above about 70%; inactive = the rest.
Classes to choose from: True = active, False = inactive

Check out these entries, answers already filled in.
{"columns": ["COMPOUND", "CLASS_ASSIGNMENT"],
 "data": [
  ["C/C(=N\\Nc1ccc([N+](=O)[O-])cc1[N+](=O)[O-])c1sc(-n2nc(-c3ccccc3)cc2-c2ccccc2)nc1C", "False"],
  ["CC(=O)OCC1OC2OC(=O)NC2C(OC(C)=O)C1OC(C)=O (stereo unspecified)", "False"],
  ["CCOC1=C/C(=N\\Nc2ccc([N+](=O)[O-])cc2)CCC1", "False"],
  ["O=[n+]1c2ccccc2n([O-])c2cc(Br)ccc21", "True"],
  ["CCCCc1ccc(-n2c(C)c(COC(=O)NC)c(COC(=O)NC)c2C)cc1", "True"]
]}

Hi, sorry to bother you, what did the test record for COc1cc(O)c(O)c(C(C)(C)C)c1 ?
False

----------
# TEST_SUMMARY: NCI Yeast Anticancer Drug Screen. Data for the mgt1 strain (AID 153)
# STATED_CONDITIONS: S. cerevisiae mgt1 mutant growth inhibition; at 33.0 µM; stronger effect = higher value
The panel holds about 79,000 compounds, 15% with a hit somewhere; the sample as a whole holds those more often.
This listing pairs compounds with measured growth inhibition.
Just the number in %, nothing appended.

Example entries begin here.
{"columns": ["COMPOUND", "REPORTED_VALUE"],
 "data": [
  ["NC(N)=NS(=O)(=O)c1ccc(Nc2c3ccccc3nc3c(C(=O)NCCO)cccc23)cc1", 12],
  ["O=C1Nc2ccccc2/C1=C/c1ccccc1", 17],
  ["NC(=O)C(=O)NNc1ccccc1", 76],
  ["Nc1nc(N)c2nc(CNc3ccc(C(=O)NC(CCC(=O)O)C(=O)O)cc3F)cnc2n1 (stereo not drawn)", 36],
  ["CC[N+](CC)(CC)c1ccccc1", 8]
]}

Determine its reported growth inhibition: CCc1cc(O)c(Cl)c(C)c1Cl
73

Determine its reported growth inhibition: CCCCCCCCCCCCNC(C)=O
-14

----------
# TEST_SUMMARY: NCI Yeast Anticancer Drug Screen. Data for the sgs1 mgt1 strain (AID 161);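 also: 0% = growth of cultures given vehicle only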
# STATED_CONDITIONS: S. cerevisiae sgs1 mgt1 strain, at 50.0 µM
About 79,000 compounds went through this panel and 15% of them were active in at least one assay; those are over-represented in the sample as a whole. Active and inactive are the calls of the source. Cut-off read from the data, not from the text of the source: active = growth inhibition above about 70%; inactive = the rest.
Classes to choose from: active, inactive

{"columns": ["MOLECULE", "CLASS_ASSIGNMENT"],
 "data": [
  ["CC1(C)CC(=O)C(/C=N/c2nc(-c3ccccc3)cs2)=C(O)C1", "active"],
  ["CCCCN(CCCC)CCC(O)c1cc2c(Cl)cc(Cl)cc2c2cc(C(F)(F)F)ccc12 (stereo unspecified)", "active"],
  ["NNC(=O)CCc1cc2ccccc2c2ccccc12", "active"]
]}

Hi, sorry to bother you, what did the test record for Cc1ccc(Cl)cc1NC(=O)OCCN(C)C(=O)Nc1cc(Cl)ccc1C ?
inactive

Hi, sorry to bother you, what did the test record for COC(=O)Nc1cn2ccc(C(Cl)=C(Cl)Cl)cc2n1 ?
inactive

Hi, sorry to bother you, what did the test record for Cc1nc(-c2cc3cc([N+](=O)[O-])ccc3oc2=O)cs1 ?
active

----------
# TEST_SUMMARY: NCI Yeast Anticancer Drug Screen. Data for the CLN2oe strain (AID 163);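 also: 0% = growth of vehicle-only control cultures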
# STATED_CONDITIONS: S. cerevisiae CLN2oe strain, at 3.7 µM, stronger effect = higher value
Compounds without any hit were thinned out: in the full panel of roughly 79,000, 15% have a hit.
This listing pairs compounds with measured growth inhibition.
Just the number in %, nothing appended.

Example entries begin here.
{"columns": ["COMPOUND", "growth inhibition / %"],
 "data": [
  ["CN(C)c1ccc(C2CC(C)(O)Oc3cc4c(cc32)OCO4)cc1 (stereo not drawn)", -16],
  ["c1ccc2c(OCC3CO3)cccc2c1 (stereo not drawn)", -3]
]}

Determine its reported growth inhibition: COc1cc(O)c(O)c(C(C)(C)C)c1
-3

----------
# TEST_SUMMARY: NCI Yeast Anticancer Drug Screen. Data for the mlh1 strain (AID 171);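 also: 0% = growth of vehicle-treated control cultures of the same strain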
# STATED_CONDITIONS: S. cerevisiae mlh1 strain growth inhibition; at 100.0 µM; stronger effect = higher value
About 79,000 compounds went through this panel and 15% of them were active in at least one assay; those are over-represented in the sample as a whole.
This listing pairs molecules with measured growth inhibition.
Just the number in %, nothing appended.

Example entries begin here.
{"columns": ["MOLECULE", "REPORTED_VALUE"],
 "data": [
  ["C/C(=N\\Nc1ccc([N+](=O)[O-])cc1[N+](=O)[O-])c1sc(-n2nc(-c3ccccc3)cc2-c2ccccc2)nc1C", 25],
  ["CCN(CC)CCOc1cc(C)c2cc(Cc3ccccc3)ccc2n1", 94],
  ["COc1ccc(N=CN(C)C)c(C)c1", 96]
]}

# evaluate next
Determine its reported growth inhibition: CCCCCCCCCCCC1=NCCO1
99

----------
# TEST_SUMMARY: NCI Yeast Anticancer Drug Screen. Data for the rad52 strain (AID 147);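 also: 0% = growth of vehicle-treated control cultures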
# STATED_CONDITIONS: S. cerevisiae rad52 mutant growth inhibition; at 3.7 µM
About 79,000 compounds went through this panel and 15% of them were active in at least one assay; those are over-represented in the sample as a whole. Calls of active or inactive are those of the source. No stated cut-off is given here; in the data, active means growth inhibition above about 70%; inactive means the rest.
Classes to choose from: active, inactive

Check out these entries, answers already filled in.
{"columns": ["COMPOUND", "CLASS_ASSIGNMENT"],
 "data": [
  ["Cc1ccccc1N=C(NO)c1ccccc1", "inactive"],
  ["COc1cc(C2SCC(=O)N2c2ccc(-c3ccc(-n4c(-c5ccccc5)nc5ccccc5c4=O)cc3)cc2)ccc1O (stereo unspecified)", "inactive"],
  ["CC[n+]1oc(C(=O)c2ccc(Cl)cc2)c(-c2ccccc2)c1-c1ccccc1.[Cl][Fe]([Cl])([Cl])[Cl]", "inactive"],
  ["COc1ccc(N=CN(C)C)c(C)c1", "inactive"],
  ["CC(C)(C)N=C(NO)c1ccccc1", "inactive"]
]}

Hi, sorry to bother you, what did the test record for COc1ccc2[nH]cc([C@@H]3C4CCC(C4)[C@H]3NCc3cccc(CN[C@H]4C5CCC(C5)[C@@H]4c4c[nH]c5ccc(OC)cc45)c3)c2c1 ?
inactive

Hi, sorry to bother you, what did the test record for O=C1C=C(N2CCN(c3ccccn3)CC2)C(=O)c2c(O)ccc(O)c21 ?
inactive

Hi, sorry to bother you, what did the test record for O=C(NCCCNCCN1C(=O)c2cccc3cc([N+](=O)[O-])cc(c23)C1=O)c1cc(-c2ccccc2)nc2ccccc12 ?
inactive

Hi, sorry to bother you, what did the test record for O=C1c2ccccc2C(=O)c2cc(CCl)ccc21 ?
inactive

Hi, sorry to bother you, what did the test record for CCCCCCCCCCCC1N=C(N)NC(CCCO)=C1C(=O)OC (stereo unspecified) ?
active

Hi, sorry to bother you, what did the test record for O=C1NC(=O)c2ccc([N+](=O)[O-])c3cccc1c23 ?
inactive

Hi, sorry to bother you, what did the test record for COc1ccc(C/C=N/Nc2ccc([N+](=O)[O-])cc2)cc1OC ?
inactive
